- TARGET_OR_TEST_SYSTEM: human MC3R (Homo sapiens, UniProt P41968)
- Construct: expressed in transfected cells; host or cells: HEK-293 cells stably expressing the GScAMP22F split-luciferase cAMP sensor (parent reporter line from Promega); MC3R clone generated in-house, G418 selection
- Sequence (P41968 whole entry): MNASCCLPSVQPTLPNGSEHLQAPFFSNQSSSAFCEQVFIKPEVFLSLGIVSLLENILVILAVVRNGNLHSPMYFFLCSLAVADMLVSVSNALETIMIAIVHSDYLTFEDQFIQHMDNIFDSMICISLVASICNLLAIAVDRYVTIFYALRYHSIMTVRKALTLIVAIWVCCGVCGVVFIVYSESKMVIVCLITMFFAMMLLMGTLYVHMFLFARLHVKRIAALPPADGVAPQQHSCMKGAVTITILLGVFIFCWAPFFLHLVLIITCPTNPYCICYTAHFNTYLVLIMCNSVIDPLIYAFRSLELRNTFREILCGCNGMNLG
- ASSAY_OVERVIEW: split-luciferase cAMP sensor assay, agonist mode (measurement window 1), hMC3R
- Format: cell-based
- CONDITION_CONTEXT: agonist mode, hMC3R stable cell line; read-out: MC3R cAMP % max activation
Positions of bridges follow the written chain, without caps; N, C: chain ends. Non-standard residues stand in square brackets, D forms with d. Residues, ends and D or L forms follow the SMILES beside them. dPhe(4-Br) = N[C@H](Cc1ccc(Br)cc1)C(=O)O; dTic = O=C(O)[C@H]1Cc2ccccc2CN1; Nle = CCCC[C@H](N)C(=O)O
Assign Emax to each entry below.
Numbers only, in %.

See these solved cases before continuing.
CC(=O)N[C@@H](CCCNC(=N)N)C(=O)N[C@H]1CSSC[C@@H](C(N)=O)NC(=O)[C@@H](Cc2c[nH]c3ccccc23)NC(=O)[C@H](CCCNC(=N)N)NC(=O)[C@H]2Cc3ccccc3CN2C(=O)[C@H](CCCNC(=N)N)NC(=O)[C@@H](C)NC1=O [CTX-1273] (Ac-RC[dA]R[dTic]R[dW]C-NH2; disulfide 2-8) | 3.7
CCCC[C@H](NC(=O)[C@H](CCCNC(=N)N)NC(C)=O)C(=O)N[C@H]1CSSC[C@@H](C(N)=O)NC(=O)[C@H](Cc2c[nH]c3ccccc23)NC(=O)[C@H](CCCNC(=N)N)NC(=O)[C@@H](Cc2ccc(Br)cc2)NC(=O)[C@H](Cc2c[nH]cn2)NC1=O [CTX-1229] (Ac-R[Nle]CH[dPhe(4-Br)]RWC-NH2; disulfide 3-8 (inferred)) | 16

Could you share which Emax value was measured for CCCC[C@H](NC(=O)[C@H](CCCNC(=N)N)NC(C)=O)C(=O)N[C@H]1CSSC[C@@H](C(N)=O)NC(=O)[C@H](Cc2c[nH]c3ccccc23)NC(=O)[C@H](CCCNC(=N)N)NC(=O)[C@@H](Cc2ccc(Br)cc2)NC(=O)[C@H](CCCNC(=N)N)NC1=O [CTX-1612] (Ac-R[Nle]CR[dPhe(4-Br)]RWC-NH2; disulfide 3-8 (inferred)) ?
27

Source: patent US20240391954A1
